Reference for the values: ChEMBL document CHEMBL1145248

Would you mind telling me the reported pIC50 of each entry?
Biological target: Extracellular calcium-sensing receptor (Homo sapiens)
Sequence (P41180 whole entry): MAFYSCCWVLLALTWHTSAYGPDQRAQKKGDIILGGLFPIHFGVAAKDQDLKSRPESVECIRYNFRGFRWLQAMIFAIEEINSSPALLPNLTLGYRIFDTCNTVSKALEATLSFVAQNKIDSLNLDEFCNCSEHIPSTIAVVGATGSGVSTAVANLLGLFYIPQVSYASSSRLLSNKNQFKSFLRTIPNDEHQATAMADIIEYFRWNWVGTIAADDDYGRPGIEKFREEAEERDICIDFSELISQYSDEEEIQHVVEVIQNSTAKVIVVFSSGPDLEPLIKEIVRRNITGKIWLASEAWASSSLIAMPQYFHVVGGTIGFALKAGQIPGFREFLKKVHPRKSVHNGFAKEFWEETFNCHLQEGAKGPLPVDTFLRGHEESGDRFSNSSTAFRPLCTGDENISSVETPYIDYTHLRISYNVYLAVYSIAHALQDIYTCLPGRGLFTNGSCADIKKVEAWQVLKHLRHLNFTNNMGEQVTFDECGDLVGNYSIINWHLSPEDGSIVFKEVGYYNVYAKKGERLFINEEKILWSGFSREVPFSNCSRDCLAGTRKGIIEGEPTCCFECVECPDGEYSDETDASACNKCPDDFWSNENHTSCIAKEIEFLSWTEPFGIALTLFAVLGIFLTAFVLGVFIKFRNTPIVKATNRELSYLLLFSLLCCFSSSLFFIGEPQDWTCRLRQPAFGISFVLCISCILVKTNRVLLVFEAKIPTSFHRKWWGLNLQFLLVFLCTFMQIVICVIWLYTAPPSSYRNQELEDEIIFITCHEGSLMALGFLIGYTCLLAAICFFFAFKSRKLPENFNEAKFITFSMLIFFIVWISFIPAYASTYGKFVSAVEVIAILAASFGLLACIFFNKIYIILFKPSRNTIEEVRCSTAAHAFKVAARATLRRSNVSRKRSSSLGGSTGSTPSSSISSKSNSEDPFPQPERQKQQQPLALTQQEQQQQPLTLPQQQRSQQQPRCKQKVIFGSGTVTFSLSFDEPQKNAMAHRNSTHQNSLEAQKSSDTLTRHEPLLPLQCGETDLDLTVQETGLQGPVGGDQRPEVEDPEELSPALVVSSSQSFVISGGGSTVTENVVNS
Assay: Inhibitory concentration was evaluated for in vitro calcilytic activity against human calcium receptor
Units for pIC50: none; it is -log10 of a concentration expressed in mol/L.

Challenge: Bench note: what pIC50 did CCCc1c(C)nc(-c2ccccc2O)n(CCc2cccc(F)c2)c1=O show?
Response given: 6.85

Challenge: Bench note: what pIC50 did Cc1nc(-c2ccccc2O)n(CCc2ccccc2)c(=O)c1C show?
Response given: 6.70

Challenge: Bench note: what pIC50 did Cc1c(C(F)(F)F)nc(-c2ccccc2O)n(CCc2ccccc2)c1=O show?
Response given: 6.10

Challenge: Bench note: what pIC50 did Cc1nc(-c2ccccc2O)n(CCc2cccc(F)c2)c(=O)c1C show?
Response given: 6.77

Challenge: Bench note: what pIC50 did Cc1nc(-c2ccccc2O)n(CCc2cccc(F)c2)c(=O)c1C(C)C show?
Response given: 7.02

Challenge: Bench note: what pIC50 did CCc1c(C)nc(-c2ccccc2O)n(CCc2ccccc2)c1=O show?
Response given: 7.00

Challenge: Bench note: what pIC50 did Cc1cc(=O)n(CCc2ccccc2)c(-c2ccccc2O)n1 show?
Response given: 5.72

Challenge: Bench note: what pIC50 did O=c1c2c(nc(-c3ccccc3O)n1CCc1ccccc1)CCCC2 show?
Response given: 6.85

Challenge: Bench note: what pIC50 did Cc1cc(=O)n(CCc2ccccc2F)c(-c2ccccc2O)n1 show?
Response given: 5.80

Challenge: Bench note: what pIC50 did CCc1c(C)nc(-c2ccccc2O)n(CCc2ccccc2F)c1=O show?
Response given: 7.01

Challenge: Bench note: what pIC50 did O=c1c2c(nc(-c3ccccc3O)n1CCc1ccccc1)CCC2 show?
Response given: 6.70

Challenge: Bench note: what pIC50 did Cc1cc(=O)n(CCc2cccc(F)c2)c(-c2ccccc2O)n1 show?
Response given: 5.96

Challenge: Bench note: what pIC50 did O=c1c2c(nc(-c3ccccc3O)n1CCc1cccc(F)c1)CCC2 show?
Response given: 6.70
